For each of the compounds below, state its pIC50.
- Target desc: DCN1 (DCUND1) protein PONY domain (Homo sapiens (Human))
- Sequence (Q96GG9 60-248): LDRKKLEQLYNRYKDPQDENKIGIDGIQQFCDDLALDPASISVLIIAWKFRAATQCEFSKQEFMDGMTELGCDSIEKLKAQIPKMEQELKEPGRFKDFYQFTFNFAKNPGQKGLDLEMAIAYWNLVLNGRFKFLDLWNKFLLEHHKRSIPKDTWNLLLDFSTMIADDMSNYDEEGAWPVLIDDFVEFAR
- Test method notes: TR-FRET assay (binding to DCN-1, displacement of FAM-labeled probe)
- Applied conditions: 24 hr after treatment with compound; read-out: TR FRET IC50 24 hr
pIC50: −log10 of the molar value.

Answered examples (3):
C/C=C(\CN1CC2CC(C1)O2)C(=O)Nc1cccc([C@@H]2c3cnn(-c4ccccc4)c3N(CC)C(=O)[C@H]2NC(=O)c2nccc(C(F)(F)F)n2)c1 = ≥ 6.70
CCN1C(=O)[C@@H](NC(=O)c2nccc(C(F)(F)F)n2)[C@H](c2cccc(C(=O)N3C[C@@H](F)C[C@H]3C#N)c2)c2cnn(-c3ccccc3)c21 = 5.52 to 6.00
C=C(CN1CCC(C)(O)C1)C(=O)NCc1cccc([C@@H]2c3cnn(-c4ccccc4)c3N(CC)C(=O)[C@H]2NC(=O)c2cccc(C(F)(F)F)c2)c1 (stereo partly shown) = ≥ 6.70

Ask: Recorded pIC50 of C=C(CN1CC(F)(F)C1)C(=O)Nc1cccc([C@@H]2c3c(C)nn(-c4ccccc4)c3N(CC)C(=O)[C@H]2NC(=O)c2cccc(C(F)(F)F)c2)c1 (racemic) , please.
Result: ≥ 6.70

###

- Target desc: DCN1 (DCUND1) protein PONY domain (Homo sapiens (Human))
- Test method notes: TR-FRET assay (binding to DCN-1, displacement of FAM-labeled probe)
- Applied conditions: 24 hr after treatment with compound; read-out: TR FRET IC50 24 hr
- Procedure: The TR-FRET assay was designed following the Scott et al. protocol (Scott et al., Nat Chem Biol. 2017 August; 13(8): 850-857. doi:10.1038/nchembio.2386). […] The TR-FRET ratio between Tb-DCN1 and the FAM-labeled probe was measured in a 384-well opti-plate (Perkin Elmer) using a plate reader (BMG) at 1, 5, and 24 hrs after treatment with compound (final DMSO concentration of 0.1%). […]
Measure name: IC50

CCN1C(=O)[C@@H](NC(=O)c2cccc(C(F)(F)F)c2)[C@@H](c2cccc(NC#N)c2)c2c(C)nn(-c3ccccc3)c21 (racemic) = > 3000 nM
CCN1C(=O)[C@H](NC(=O)c2cccc(C(F)(F)F)c2)[C@@H](c2ccccc2N(C)C#N)c2cnn(-c3ccccc3)c21 (racemic) = 1000 to 3000 nM
C=C(CN(C)C1COC1)C(=O)Nc1cccc([C@H]2c3c(C)nn(-c4ccccc4)c3N(CC)C(=O)[C@@H]2NC(=O)c2cccc(C(F)(F)F)c2)c1 (racemic) = ≤ 200 nM

We next turn to a different molecule, shown below.
Ask: Identify the measured IC50 of "C=C(CN1CC2(COC2)C1)C(=O)NCc1cccc([C@@H]2c3cnn(-c4ccccc4)c3N(CC)C(=O)[C@H]2NC(=O)c2cccc(C(F)(F)F)c2)c1" for DCN1 (DCUND1) protein PONY domain (Homo sapiens (Human)).
Result: ≤ 200 nM
